- TESTED TARGET: human MET ECD mutant A (mutations 1, 2, 3) (human) (UniProt P08581)
- ASSAY METHOD TEXT: ELISA, WT or mutant hMET ECD coated

BINDER	% binding (EMAX) vs WT MET ECD, %
71C3 chimeric llama-human IgG1 mAb (antibody, V domains shown, human IgG1 CH1-CH2-CH3 and human CL lambda) VH: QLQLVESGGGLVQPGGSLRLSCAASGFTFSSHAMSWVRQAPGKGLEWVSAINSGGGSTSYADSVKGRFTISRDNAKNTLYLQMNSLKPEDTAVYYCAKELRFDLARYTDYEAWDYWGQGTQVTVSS VL: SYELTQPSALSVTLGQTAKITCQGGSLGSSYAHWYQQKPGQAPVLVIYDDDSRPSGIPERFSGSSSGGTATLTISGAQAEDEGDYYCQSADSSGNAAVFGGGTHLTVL	99.8
71A3 chimeric llama-human IgG1 mAb (antibody, V domains shown, human IgG1 CH1-CH2-CH3 and human CL lambda) VH: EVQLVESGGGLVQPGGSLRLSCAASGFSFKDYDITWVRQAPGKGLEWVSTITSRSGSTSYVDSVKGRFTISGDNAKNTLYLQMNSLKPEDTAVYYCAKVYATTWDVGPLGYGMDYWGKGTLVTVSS VL: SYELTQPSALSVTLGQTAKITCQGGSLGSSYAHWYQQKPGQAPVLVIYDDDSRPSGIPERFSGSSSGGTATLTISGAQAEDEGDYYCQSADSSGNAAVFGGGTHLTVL	117
71D4 chimeric llama-human IgG1 mAb (antibody, V domains shown, human IgG1 CH1-CH2-CH3 and human CL lambda) VH: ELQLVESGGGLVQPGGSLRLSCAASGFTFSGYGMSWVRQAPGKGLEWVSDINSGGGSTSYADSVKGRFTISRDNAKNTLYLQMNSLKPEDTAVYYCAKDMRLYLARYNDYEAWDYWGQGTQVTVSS VL: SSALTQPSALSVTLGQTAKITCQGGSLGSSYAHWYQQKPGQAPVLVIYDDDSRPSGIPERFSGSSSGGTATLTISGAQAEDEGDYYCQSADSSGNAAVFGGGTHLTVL	114
71D6 chimeric llama-human IgG1 mAb (antibody, V domains shown, human IgG1 CH1-CH2-CH3 and human CL lambda; also called 71D6 Human IgG1/lambda) VH: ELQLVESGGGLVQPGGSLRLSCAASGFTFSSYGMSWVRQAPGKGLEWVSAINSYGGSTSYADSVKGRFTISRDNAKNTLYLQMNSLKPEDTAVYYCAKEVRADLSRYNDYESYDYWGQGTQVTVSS VL: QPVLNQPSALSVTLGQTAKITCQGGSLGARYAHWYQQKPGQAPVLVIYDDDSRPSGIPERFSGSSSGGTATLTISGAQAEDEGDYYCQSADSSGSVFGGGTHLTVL	103
71G2 chimeric llama-human IgG1 mAb (antibody, V domains shown, human IgG1 CH1-CH2-CH3 and human CL lambda; also called 71G2 Human IgG1/lambda) VH: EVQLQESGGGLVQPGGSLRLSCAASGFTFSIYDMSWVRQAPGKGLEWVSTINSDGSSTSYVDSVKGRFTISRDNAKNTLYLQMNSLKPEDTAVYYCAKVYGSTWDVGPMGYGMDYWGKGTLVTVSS VL: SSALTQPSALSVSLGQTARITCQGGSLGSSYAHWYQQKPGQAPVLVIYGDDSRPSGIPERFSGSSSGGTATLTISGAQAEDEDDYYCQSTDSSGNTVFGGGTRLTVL	92.1
